SUBJECT OF TEST: HIS-TGF-βR1 T204D (Homo sapiens (Human), UniProt P36897, T204D)
Sequence (P36897 34-503 T204D): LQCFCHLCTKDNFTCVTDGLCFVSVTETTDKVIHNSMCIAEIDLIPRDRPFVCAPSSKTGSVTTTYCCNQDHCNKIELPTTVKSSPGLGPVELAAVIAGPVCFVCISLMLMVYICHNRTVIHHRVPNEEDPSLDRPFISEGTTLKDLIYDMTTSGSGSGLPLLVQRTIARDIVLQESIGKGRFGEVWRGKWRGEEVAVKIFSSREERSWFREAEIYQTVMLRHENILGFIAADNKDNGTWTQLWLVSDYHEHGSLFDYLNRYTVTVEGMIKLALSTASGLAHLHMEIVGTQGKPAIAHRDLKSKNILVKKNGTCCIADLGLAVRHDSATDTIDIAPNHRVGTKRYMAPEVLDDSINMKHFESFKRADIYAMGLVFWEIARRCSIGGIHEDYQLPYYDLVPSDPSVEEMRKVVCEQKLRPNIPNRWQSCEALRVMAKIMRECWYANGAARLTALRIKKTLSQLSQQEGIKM
ASSAY COMMENT: HTRF probe displacement assay with HIS-TGF-βR1 T204D
RECORDED CONDITIONS: read-out: TGFbr1 IC50; HTRF probe displacement, 1 nM HIS-TGF-βR1 T204D, 1 hour at room temperature
Binary call on IC50 with cut-off 3 nM: strictly below means t, and equality or higher means f.

IC50 under 3 nM? Item: NC(=O)c1cnc2ccc(-c3c(-c4ccc(F)cc4)ncn3CCO)nn12
f

IC50 under 3 nM? Item: CCOCCn1cnc(-c2ccc(F)cc2)c1-c1ccc2ncc(C(N)=O)n2c1
t

IC50 under 3 nM? Item: O=C(NC1CC1)c1cnc2ccc(-c3c(-c4ccc(F)cc4)ncn3CC(F)F)cn12
f

IC50 under 3 nM? Item: COc1ccc(-c2ncn(CC(F)F)c2-c2ccc3ncc(C#N)n3n2)cc1
f

IC50 under 3 nM? Item: N#Cc1cnc2ccc(-c3c(-c4ccc(F)c(Cl)c4)ncn3CCC3CC3)nn12
t

###

SUBJECT OF TEST: HIS-TGF-βR1 T204D (Homo sapiens (Human), UniProt P36897, T204D)
ASSAY COMMENT: HTRF probe displacement assay with HIS-TGF-βR1 T204D
RECORDED CONDITIONS: read-out: TGFbr1 IC50; HTRF probe displacement, 1 nM HIS-TGF-βR1 T204D, 1 hour at room temperature
Binary call on IC50 with cut-off 20 nM: strictly below means condition met, and equality or higher means condition not met.

IC50 under 20 nM? Item: C=Cc1cnc2ccc(-c3c(-c4ccc(F)cc4)ncn3CC(F)F)nn12 [213E′]
condition met

IC50 under 20 nM? Item: CCOCCn1cnc(-c2ccc(F)cc2)c1-c1ccc2ncc(C#N)n2c1 [91′]
condition met

IC50 under 20 nM? Item: N#Cc1cnc2ccc(-c3c(-c4ccc(F)c(Cl)c4)ncn3CC3CC3)cn12 [96′]
condition not met

IC50 under 20 nM? Item: NC(=O)c1cnc2ccc(-c3c(-c4ccc(F)cc4)ncn3C(CO)CO)cn12 [171′]
condition met

IC50 under 20 nM? Item: COc1cc(-c2ncn(CC(F)F)c2-c2ccc3ncc(C#N)n3n2)ccc1F [262′]
condition met

IC50 under 20 nM? Item: NC(=O)c1cnc2ccc(-c3c(-c4ccc(F)c(Cl)c4)ncn3CCN3CCCC3)nn12 [143′]
condition met

IC50 under 20 nM? Item: CC(=O)NCc1cnc2ccc(-c3c(-c4ccc(F)cc4)ncn3CC(F)F)nn12 [Example 197′]
condition met

IC50 under 20 nM? Item: Fc1ccc(-c2ncn(CCC(F)(F)F)c2-c2ccc3nccn3c2)cc1Cl [182′]
condition not met

IC50 under 20 nM? Item: CC(=O)Nc1nc(-c2ccc(F)cc2)c(-c2ccc3ncc(C#N)n3c2)n1CC(F)F [297′]
condition not met

IC50 under 20 nM? Item: NC(=O)c1cnc2ccc(-c3c(-c4ccc(F)cc4)nc4n3CCNC4)cn12 [Example 290′]
condition not met

IC50 under 20 nM? Item: NC(=O)c1cnc2ccc(-c3c(-c4ccc(F)cc4)ncn3C(CO)CO)nn12 [129′]
condition met

IC50 under 20 nM? Item: NC(=O)c1cnc2ccc(-c3c(-c4ccc(F)c(Cl)c4)ncn3CCO)nn12 [138′]
condition met

IC50 under 20 nM? Item: CC(O)Cn1cnc(-c2ccc(F)cc2)c1-c1ccc2ncc(C(N)=O)n2c1 (stereo not shown) [176′]
condition met

IC50 under 20 nM? Item: CC(O)CCn1cnc(-c2ccc(F)cc2)c1-c1ccc2ncc(C#N)n2c1 (stereo not shown) [69′]
condition not met

IC50 under 20 nM? Item: CC(C)CCn1cnc(-c2ccc(F)c(Cl)c2)c1-c1ccc2ncc(C#N)n2n1 [49′]
condition met

IC50 under 20 nM? Item: CC(C)n1cnc(-c2ccc(F)c(Cl)c2)c1-c1ccc2ncc(C(N)=O)n2n1 [116′]
condition met

IC50 under 20 nM? Item: N#Cc1cnc2ccc(-c3c(-c4ccc(F)cc4)ncn3C3CC(F)(F)C3)cn12 [66′]
condition not met

IC50 under 20 nM? Item: N#Cc1cnc2ccc(-c3c(-c4ccc(F)c(Cl)c4)ncn3CCCl)nn12 [60′]
condition met

###

SUBJECT OF TEST: HIS-TGF-βR1 T204D (Homo sapiens (Human), UniProt P36897, T204D)
ASSAY COMMENT: HTRF probe displacement assay with HIS-TGF-βR1 T204D
RECORDED CONDITIONS: read-out: TGFbr1 IC50; HTRF probe displacement, 1 nM HIS-TGF-βR1 T204D, 1 hour at room temperature
ASSAY ENDPOINT: pIC50
On this scale, pIC50 is minus log10 of a concentration expressed in M (mol/L).

May I ask what pIC50 has been recorded for CN(C)CCCn1cnc(-c2ccc(F)cc2)c1-c1ccc2ncc(C(N)=O)n2c1 ?
7.50

May I ask what pIC50 has been recorded for N#Cc1cnc2ccc(-c3c(-c4ccc(F)c(Cl)c4)ncn3[C@@H]3CCC(F)(F)C3)nn12 ?
9.05

May I ask what pIC50 has been recorded for NCc1cnc2ccc(-c3c(-c4ccc(F)cc4)ncn3CC(F)F)nn12 [196A′] ?
7.70

May I ask what pIC50 has been recorded for N#Cc1cnc2ccc(-c3c(-c4ccc(F)c(Cl)c4)ncn3C3COC3)cn12 ?
6.86

May I ask what pIC50 has been recorded for NC(=O)c1cnc2ccc(-c3c(-c4ccc(F)cc4)ncn3CCCO)nn12 ?
8.33

May I ask what pIC50 has been recorded for NC(=O)c1cnc2ccc(-c3c(-c4ccc(F)cc4)ncn3C3COC3)cn12 ?
8.18

May I ask what pIC50 has been recorded for CC(C)n1cnc(-c2ccc(F)c(Cl)c2)c1-c1ccc2ncc(C#N)n2n1 ?
9.22

May I ask what pIC50 has been recorded for CC(C)(O)Cn1cnc(-c2ccc(F)cc2)c1-c1ccc2ncc(C(N)=O)n2c1 ?
8.04

May I ask what pIC50 has been recorded for N#Cc1cnc2ccc(-c3c(-c4ccc(F)cc4)ncn3[C@H]3C[C@@H](O)C3)nn12 ?
8.64

###

SUBJECT OF TEST: HIS-TGF-βR1 T204D (Homo sapiens (Human), UniProt P36897, T204D)
ASSAY COMMENT: HTRF probe displacement assay with HIS-TGF-βR1 T204D
RECORDED CONDITIONS: read-out: TGFbr1 IC50; HTRF probe displacement, 1 nM HIS-TGF-βR1 T204D, 1 hour at room temperature
pIC50: −log10 of the molar value.
The threshold is inclusive: pIC50 of exactly 8 counts as Yes; values below receive No.

Does CC(C)(C)Cn1cnc(-c2ccc(F)cc2)c1-c1ccc2ncc(C#N)n2n1 have a reported pIC50 of at least 8?
No

Does N#Cc1cnc2ccc(-c3c(-c4cc(Cl)ccc4F)ncn3CC(F)F)cn12 have a reported pIC50 of at least 8?
Yes

Does N#Cc1cnc2ccc(-c3c(-c4ccc(F)cc4)ncn3C[C@H](O)CO)cn12 have a reported pIC50 of at least 8?
No

Does CC(C)OCCn1cnc(-c2ccc(F)cc2)c1-c1ccc2ncc(C#N)n2n1 have a reported pIC50 of at least 8?
Yes

Does N#Cc1cnc2ccc(-c3c(-c4ccc(F)cc4)ncn3C3CC(CO)C3)nn12 (stereo not shown) have a reported pIC50 of at least 8?
Yes

Does NC(=O)c1cnc2ccc(-c3c(-c4ccc(F)cc4F)ncn3CC(F)F)cn12 have a reported pIC50 of at least 8?
Yes

Does CC1(n2cnc(-c3ccc(F)c(Cl)c3)c2-c2ccc3ncc(C#N)n3n2)CC1 have a reported pIC50 of at least 8?
Yes

Does Cn1cnc(-c2ccc(F)c(Cl)c2)c1-c1ccc2ncc(C#N)n2n1 have a reported pIC50 of at least 8?
Yes

Does N#Cc1cnc2ccc(-c3c(-c4ccc(F)cc4)ncn3C3CNC3)nn12 [190C′] have a reported pIC50 of at least 8?
No

Does N#Cc1cnc2ccc(-c3c(-c4ccc(F)cc4)ncn3C34CC(C3)C4)nn12 have a reported pIC50 of at least 8?
Yes

Does N#Cc1cnc2ccc(-c3c(-c4ccc(F)c(Cl)c4)ncn3CCC3CCC3)nn12 have a reported pIC50 of at least 8?
Yes

Does N#Cc1cnc2ccc(-c3c(-c4ccc(F)cc4)ncn3C3CCC(F)(F)CC3)nn12 have a reported pIC50 of at least 8?
No

Does NC(=O)c1cnc2ccc(-c3c(-c4ccc(F)cc4)ncn3CC3CCC3)cn12 have a reported pIC50 of at least 8?
Yes

Does CCn1cnc(-c2ccc(F)cc2)c1-c1ccc2ncc(C(N)=O)n2c1 have a reported pIC50 of at least 8?
Yes

Does CNCc1cnc2ccc(-c3c(-c4ccc(F)cc4)ncn3CC(F)F)nn12 have a reported pIC50 of at least 8?
No

This collection of values is drawn from patent US9884868B2.
